# PROTOCOL DESCRIPTION: Cytotoxicity against human Huh7ET cells expressing LucUbiNeo fusion protein measured after 4 hrs at 37 degC by MTT assay
# Assay type: cell-based, Huh-7
Assignment: determine reported CC50 at 4 h for the given compounds.
Answers are plain numbers, in µM.

Before answering, review these 4 worked examples.
Task: Need CC50 at 4 h, item COCCn1c(=O)c(-c2c(Cl)cccc2Cl)cc2c(N)nc(Nc3ccccc3)nc21
Output: 241

Task: Would you kindly share the measured CC50 at 4 h for O=C1Nc2nc(Nc3ccccc3)nc(On3nnc4ccccc43)c2CC1c1ccc(F)cc1 (stereo not given) ?
Output: 12.2

Task: Quick one: CC50 at 4 h for CCCOCCOc1nc(N)nc2c1cc(-c1c(Cl)cccc1Cl)c(=O)n2C ?
Output: 50.1

Task: # lookup: CC50 at 4 h of CCCOCCNc1nc(Nc2ccccc2)nc2c1cc(-c1c(Cl)cccc1Cl)c(=O)n2C
Output: 84.7

Now examine the next entry.
Task: Query: CC50 at 4 h; subject: Cn1c(=O)c(-c2c(Cl)cccc2Cl)cc2cnc(Nc3ccccc3)nc21
Output: 0.9
